- details: human gut metagenome, 24 h, 2 µM; also: call rule not given here
assay-metric: Bacterial Biotransformation

# compound, result
measured = [
    ("CCCCC(=O)O[C@]1(C(=O)CO)[C@@H](C)C[C@H]2[C@@H]3CCC4=CC(=O)C=C[C@]4(C)[C@@]3(F)[C@@H](O)C[C@@]21C [BETAMETHASONE VALERATE]", "Compound metabolized"),
    ("CN(CCOc1ccc(CC2SC(=O)NC2=O)cc1)c1ccccn1.O=C(O)/C=C\\C(=O)O (configuration not stated) [ROSIGLITAZONE MALEATE]", "Compound metabolized"),
    ("CC(=O)CCCCn1c(=O)c2c(ncn2C)n(C)c1=O [PENTOXIFYLLINE]", "Compound NOT metabolized"),
    ("CN(C)C(=O)Oc1cccc([N+](C)(C)C)c1.[Br-] [NEOSTIGMINE BROMIDE]", "Compound NOT metabolized"),
    ("CCOC(=O)[C@H](CCc1ccccc1)N[C@@H](C)C(=O)N1CCC[C@H]1C(=O)O.O=C(O)/C=C\\C(=O)O [ENALAPRIL MALEATE]", "Compound NOT metabolized"),
    ("Br.CN1CCC[C@@H]1Cc1c[nH]c2ccc(CCS(=O)(=O)c3ccccc3)cc12 [ELETRIPTAN HYDROBROMIDE]", "Compound NOT metabolized"),
    ("COc1ccc(/C=C/C(=O)Nc2ccccc2C(=O)O)cc1OC", "Compound NOT metabolized"),
    ("CCOc1cc(CC(=O)N[C@@H](CC(C)C)c2ccccc2N2CCCCC2)ccc1C(=O)O [REPAGLINIDE]", "Compound metabolized"),
    ("CCN(CC)CCOC(=O)C1(C2CCCCC2)CCCCC1 [DICYCLOMINE]", "Compound metabolized"),
    ("CN(C)C(=O)Oc1cc(OC(=O)N(C)C)cc(C(O)CNC(C)(C)C)c1 (configuration not stated) [BAMBUTEROL]", "Compound metabolized"),
    ("Nc1nnc(-c2cccc(Cl)c2Cl)c(N)n1 [LAMOTRIGINE]", "Compound NOT metabolized"),
    ("CCOC(=O)C1=C(C)NC(C)=C(C(=O)OC)C1c1cccc([N+](=O)[O-])c1 (configuration not stated) [NITRENDIPINE]", "Compound metabolized"),
    ("CC[C@@]1(O)C(=O)OCc2c1cc1n(c2=O)Cc2cc3c(CN(C)C)c(O)ccc3nc2-1 [TOPOTECAN]", "Compound NOT metabolized"),
    ("CCCC(C)(COC(N)=O)COC(=O)NC(C)C (configuration not stated) [CARISOPRODOL]", "Compound metabolized"),
    ("CC(=O)O[C@]1(C(C)=O)CC[C@H]2[C@@H]3C=C(C)C4=CC(=O)CC[C@]4(C)[C@H]3CC[C@@]21C [MEGESTROL ACETATE]", "Compound metabolized"),
    ("Cc1nc(Nc2ncc(C(=O)Nc3c(C)cccc3Cl)s2)cc(N2CCN(CCO)CC2)n1 [DASATINIB ANHYDROUS]", "Compound NOT metabolized"),
    ("CCN(C(C)=O)c1cccc(-c2ccnc3c(C#N)cnn23)c1 [ZALEPLON]", "Compound metabolized"),
]

###

- experiment: The drug is tested on WLS-007 corresponding to human gut metagenome with ENA study accession number: PRJEB37062 and ENA sample accession number: ERS12561742 for biotransformation under anaerobic condition. The drug concentrations were measured over 9 timepoints collected between 0 and 24 hours of incubation by liquid-chromatography-coupled mass spectrometry (LC–MS)
- details: 2 µM

# compound, Bacterial Biotransformation
measured = [
    ("CC1Cc2ccccc2N1NC(=O)c1ccc(Cl)c(S(N)(=O)=O)c1 (centres undefined) [INDAPAMIDE]", "Compound NOT metabolized"),
    ("CC(CCc1ccccc1)NCC(O)c1ccc(O)c(C(N)=O)c1 (centres undefined)", "Compound NOT metabolized"),
    ("N[C@@H](Cc1ccc(N(CCCl)CCCl)cc1)C(=O)O", "Compound metabolized"),
    ("CCOc1ccc2nc(S(N)(=O)=O)sc2c1 [ETHOXZOLAMIDE]", "Compound NOT metabolized"),
    ("CCOC(=O)[C@H](CCc1ccccc1)N[C@@H](C)C(=O)N1CCC[C@H]1C(=O)O.O=C(O)/C=C\\C(=O)O [ENALAPRIL MALEATE]", "Compound NOT metabolized"),
    ("CN1CCC[C@@H]1CCO[C@](C)(c1ccccc1)c1ccc(Cl)cc1.O=C(O)/C=C/C(=O)O [CLEMASTINE FUMARATE]", "Compound NOT metabolized"),
    ("COc1ccc(CN2CCNCC2)c(OC)c1OC.Cl.Cl [TRIMETAZIDINE DIHYDROCHLORIDE]", "Compound NOT metabolized"),
    ("Clc1cccc(Cl)c1N=C1NCCN1", "Compound NOT metabolized"),
    ("CCOC(=O)[C@H](CCc1ccccc1)N[C@@H](C)C(=O)N1Cc2ccccc2C[C@H]1C(=O)O", "Compound metabolized"),
]

###

- experiment: The drug is tested on Z-027 corresponding to metagenome with ENA study accession number: PRJEB37062 and ENA sample accession number: ERS12561826 for biotransformation under anaerobic condition. The drug concentrations were measured over 9 timepoints collected between 0 and 24 hours of incubation by liquid-chromatography-coupled mass spectrometry (LC–MS)
- details: 2 µM
assay-metric: Bacterial Biotransformation

# compound, assay-metric, result
rows = [
    ("COc1ccc2c(c1)c(CC(=O)O)c(C)n2C(=O)c1ccc(Cl)cc1", "Bacterial Biotransformation", "Compound metabolized"),
    ("Cc1cc(C)cc(OCC2CNC(=O)O2)c1 (stereo not given)", "Bacterial Biotransformation", "Compound metabolized"),
    ("O=C1C(CC[S+]([O-])c2ccccc2)C(=O)N(c2ccccc2)N1c1ccccc1 (stereo not given)", "Bacterial Biotransformation", "Compound NOT metabolized"),
    ("CC(C)(C)NC[C@H](O)COc1nsnc1N1CCOCC1.O=C(O)/C=C\\C(=O)O [TIMOLOL MALEATE]", "Bacterial Biotransformation", "Compound NOT metabolized"),
    ("O=C(CCCN1CCC2(CC1)C(=O)NCN2c1ccccc1)c1ccc(F)cc1", "Bacterial Biotransformation", "Compound NOT metabolized"),
]

###

- details: human gut metagenome, 24 h, 2 µM

# molecule, Bacterial Biotransformation
rows = [
    ("CSc1ccc2c(c1)C(N1CCN(C)CC1)Cc1ccccc1S2.O=C(O)/C=C\\C(=O)O (stereo not drawn)", "Compound NOT metabolized"),
    ("COc1ccc2c(c1)c(CC(=O)O)c(C)n2C(=O)c1ccc(Cl)cc1 [INDOMETHACIN]", "Compound NOT metabolized"),
    ("O=C(NC(Cc1cc(=O)[nH]c2ccccc12)C(=O)O)c1ccc(Cl)cc1 (stereo not drawn) [REBAMIPIDE]", "Compound NOT metabolized"),
    ("CC12CC3CC(C)(C1)CC(N)(C3)C2 [MEMANTINE]", "Compound NOT metabolized"),
    ("CN(C)CCC=C1c2ccccc2COc2ccccc21 [DOXEPIN]", "Compound NOT metabolized"),
    ("CC(=O)Oc1ccc(C(c2ccc(OC(C)=O)cc2)c2ccccn2)cc1 [BISACODYL]", "Compound metabolized"),
    ("CCOc1ccccc1OCCN[C@H](C)Cc1ccc(OC)c(S(N)(=O)=O)c1.Cl [TAMSULOSIN HYDROCHLORIDE]", "Compound NOT metabolized"),
    ("CN(C)CCc1c[nH]c2ccc(CS(=O)(=O)N3CCCC3)cc12 [ALMOTRIPTAN]", "Compound NOT metabolized"),
    ("CC(NC(C)(C)C)C(=O)c1cccc(Cl)c1 (stereo not drawn) [BUPROPION]", "Compound metabolized"),
    ("Cc1cc2c(s1)Nc1ccccc1N=C2N1CCN(C)CC1 [OLANZAPINE]", "Compound metabolized"),
    ("O=C(CCCN1CCC2(CC1)C(=O)NCN2c1ccccc1)c1ccc(F)cc1 [SPIPERONE]", "Compound NOT metabolized"),
    ("CC(C)NCC(O)COc1ccc(CC(N)=O)cc1 (stereo not drawn) [ATENOLOL]", "Compound metabolized"),
    ("CC(C)(C)NCC(O)COc1cccc2c1CC(O)C(O)C2 (stereo not drawn) [NADOLOL]", "Compound NOT metabolized"),
    ("COc1ccc(/C=C/C(=O)Nc2ccccc2C(=O)O)cc1OC", "Compound metabolized"),
    ("CC(C)c1c(CN(C)C(C)Cc2ccccc2)n(C)n(-c2ccccc2)c1=O (stereo not drawn) [FAMPROFAZONE]", "Compound metabolized"),
    ("CCN(C(C)=O)c1cccc(-c2ccnc3c(C#N)cnn23)c1 [ZALEPLON]", "Compound metabolized"),
    ("O=C1N=C([O-])NC1(c1ccccc1)c1ccccc1.[Na+] [PHENYTOIN SODIUM]", "Compound metabolized"),
    ("Clc1cccc(Cl)c1N=C1NCCN1 [CLONIDINE]", "Compound NOT metabolized"),
    ("COC(=O)C(c1ccccc1)C1CCCCN1 (stereo not drawn) [METHYLPHENIDATE]", "Compound NOT metabolized"),
    ("C#C[C@]1(OC(C)=O)CC[C@H]2[C@@H]3CCC4=C[C@@H](OC(C)=O)CC[C@@H]4[C@H]3CC[C@@]21C [ETHYNODIOL DIACETATE]", "Compound metabolized"),
    ("CCOc1ccc2nc(S(N)(=O)=O)sc2c1 [ETHOXZOLAMIDE]", "Compound NOT metabolized"),
    ("CC(C)c1nc(N(C)S(C)(=O)=O)nc(-c2ccc(F)cc2)c1/C=C/[C@@H](O)C[C@@H](O)CC(=O)[O-].CC(C)c1nc(N(C)S(C)(=O)=O)nc(-c2ccc(F)cc2)c1/C=C/[C@@H](O)C[C@@H](O)CC(=O)[O-].[Ca+2] [ROSUVASTATIN CALCIUM]", "Compound NOT metabolized"),
    ("Cc1ccccc1C(OCCN(C)C)c1ccccc1.O=C(O)CC(O)(CC(=O)O)C(=O)O (stereo not drawn) [ORPHENADRINE CITRATE]", "Compound NOT metabolized"),
    ("O=P1(N(CCCl)CCCl)NCCCO1 (stereo not drawn) [CYCLOPHOSPHAMIDE ANHYDROUS]", "Compound NOT metabolized"),
    ("c1ccc2[nH]c(-c3cscn3)nc2c1 [THIABENDAZOLE]", "Compound NOT metabolized"),
    ("O=C1C(CC[S+]([O-])c2ccccc2)C(=O)N(c2ccccc2)N1c1ccccc1 (stereo not drawn) [SULFINPYRAZONE]", "Compound metabolized"),
    ("CC(=O)O[C@]1(C(C)=O)CC[C@H]2[C@@H]3C=C(C)C4=CC(=O)CC[C@]4(C)[C@H]3CC[C@@]21C [MEGESTROL ACETATE]", "Compound metabolized"),
    ("CN(C)CCOC(C)(c1ccccc1)c1ccccn1.O=C(O)CCC(=O)O (stereo not drawn) [DOXYLAMINE SUCCINATE]", "Compound NOT metabolized"),
]
